System: prostamide receptors on human pre-adipocytes
Assay: xCelligence impedance assay on pre-adipocytes
Type: cell-based
Settings: 20 min; human pre-adipocytes, 7 concentrations (10^−5 to 10^−9 M), signal measured for 20 minutes
metric: pEC50
Give bare numbers, as −log10 of the molar value.

A selection of reference data follows.
Memo: NC(=O)CCC/C=C\C[C@@H]1[C@@H](/C=C/[C@@H](O)CCc2cc(Cl)sc2Cl)[C@H](O)C[C@@H]1O , reported pEC50: 7.97

Memo: NC(=O)CCC/C=C\C[C@@H]1[C@@H](/C=C/[C@@H](O)CCc2cc(Br)sc2Br)[C@H](O)C[C@@H]1O , reported pEC50: 7.93

More entries:
Memo: CCNC(=O)CCC/C=C\C[C@@H]1[C@@H](/C=C/[C@@H](O)CCc2ccccc2)[C@H](O)C[C@@H]1O [Bimatoprost, bimatoprost, reference compound] , reported pEC50: 6.11

The measured values listed here are drawn from patent US10117877B2.
